Test system: UACC-62 melanoma
Test: NCI tumour cell line growth inhibition, 48 h
Overview of reported GI50 across a group of molecules:

Solved cases below.
Qu. If you can, please state the reported GI50 value of `COc1cccc(-c2nc(-c3ccc(NC(=O)OC(C)C)cc3)[nH]c2-c2ccnc(Br)c2)c1` .
Ans. 1.98 µM

Qu. Entry to check: `O=C(Nc1ccc(Oc2ccc(Nc3nc4ccccc4s3)cc2)cc1)Nc1ccc(Cl)c(C(F)(F)F)c1`
Ans. 1.23 µM

Continuing:
Qu. If you can, please state the reported GI50 value of `Cc1ccc(-n2c3nc(=O)[nH]c(=O)c-3cc3cc([N+](=O)[O-])ccc32)cc1` .
Ans. 12.1 µM

Qu. Entry to check: `CN(C)c1cc(NN=C(c2ccc(O)cc2)c2ccc(O)cc2)c([N+](=O)[O-])cc1[N+](=O)[O-]`
Ans. 3.41 µM

Qu. Entry to check: `COC[C@H]1Cn2cc(-c3nc(Nc4ccnn4C)ncc3C)nc2C(=O)N1Cc1ccc(F)c(F)c1`
Ans. 0.0228 µM

Qu. Entry to check: `O=C(Oc1ccc(Cl)cc1)c1ccccc1Nc1ccnc(C(F)(F)F)c1`
Ans. 2.61 µM

Qu. Entry to check: `O=C(CCCSc1nc(-c2ccccc2)cc(-c2ccccc2)n1)NO`
Ans. 1.32 µM

Qu. Entry to check: `CC(C)[C@@H]1C=C2CC[C@H]3[C@](C)(CN)CCC[C@]3(C)[C@H]2CC1`
Ans. 16 µM

Qu. Entry to check: `Cc1cc(I)cc(CN(CCCN(C)C)C(C)C)c1O`
Ans. 15.2 µM

---

System: MDA-MB-435
Experiment: NCI tumour cell line growth inhibition, 48 h
readout label: TGI (µM)
Give the value in µM but do not write µM after it.

Qu. If you can, please state the reported TGI value of `O=C(/C=C/c1ccc2c(c1)OCO2)c1ccc(O)cc1` .
Ans. 34.1

Qu. Entry to check: `O=C(/C(=C/c1ccc([N+](=O)[O-])cc1)SCc1ccccc1)c1ccc(Cl)cc1`
Ans. 11.4

Continuing:
Qu. If you can, please state the reported TGI value of C[C@]12CCC3C4=C(CCC3C1CCC2=O)C(=O)[C@H]1O[C@H]1C4=O (stereo not given in full) .
Ans. 24.9

Qu. Entry to check: CCN1C(=O)N(c2ccccc2)C2NC(=S)N(/N=C/C=C/c3ccccc3OC)C21 (stereo not given)
Ans. 0.155

---

Tested on: IGROV1 ovarian
Assay: NCI tumour cell line growth inhibition, 48 h
readout label: TGI

Solved cases below.
Qu. If you can, please state the reported TGI value of `COc1ccc(/C=N/NC(=O)c2cccc3cc[nH]c23)cc1O` .
Ans. > 100 µM

Qu. Entry to check: NC(=O)c1ccccc1NC(=O)C(=O)C(C(=O)c1ccc(Cl)c(Cl)c1)C1OC(=O)c2ccccc21 (stereo not given)
Ans. > 100 µM

Qu. Entry to check: Cc1ccccc1OC(C)C(=O)NN1C(=O)CSC1c1ccccc1 (stereo not given)
Ans. > 100 µM

Qu. Entry to check: `C/C(CCn1[nH]c(=O)ccc1=O)=N\NC(=O)C(=O)NN`
Ans. > 100 µM

Proceed to the following item.
Qu. If you can, please state the reported TGI value of `COc1cc(/C(C#N)=C/c2nc3c(N4CCOCC4)nc(Cl)nc3n2C)cc(OC)c1OC` .
Ans. 16.6 µM

Values from PubChem BioAssay (NCI)
